Please respond with reported IC50 for every item in the list.
# Subject of test: JAK3 (Homo sapiens (Human), UniProt P52333)
# Sequence (P52333 whole entry): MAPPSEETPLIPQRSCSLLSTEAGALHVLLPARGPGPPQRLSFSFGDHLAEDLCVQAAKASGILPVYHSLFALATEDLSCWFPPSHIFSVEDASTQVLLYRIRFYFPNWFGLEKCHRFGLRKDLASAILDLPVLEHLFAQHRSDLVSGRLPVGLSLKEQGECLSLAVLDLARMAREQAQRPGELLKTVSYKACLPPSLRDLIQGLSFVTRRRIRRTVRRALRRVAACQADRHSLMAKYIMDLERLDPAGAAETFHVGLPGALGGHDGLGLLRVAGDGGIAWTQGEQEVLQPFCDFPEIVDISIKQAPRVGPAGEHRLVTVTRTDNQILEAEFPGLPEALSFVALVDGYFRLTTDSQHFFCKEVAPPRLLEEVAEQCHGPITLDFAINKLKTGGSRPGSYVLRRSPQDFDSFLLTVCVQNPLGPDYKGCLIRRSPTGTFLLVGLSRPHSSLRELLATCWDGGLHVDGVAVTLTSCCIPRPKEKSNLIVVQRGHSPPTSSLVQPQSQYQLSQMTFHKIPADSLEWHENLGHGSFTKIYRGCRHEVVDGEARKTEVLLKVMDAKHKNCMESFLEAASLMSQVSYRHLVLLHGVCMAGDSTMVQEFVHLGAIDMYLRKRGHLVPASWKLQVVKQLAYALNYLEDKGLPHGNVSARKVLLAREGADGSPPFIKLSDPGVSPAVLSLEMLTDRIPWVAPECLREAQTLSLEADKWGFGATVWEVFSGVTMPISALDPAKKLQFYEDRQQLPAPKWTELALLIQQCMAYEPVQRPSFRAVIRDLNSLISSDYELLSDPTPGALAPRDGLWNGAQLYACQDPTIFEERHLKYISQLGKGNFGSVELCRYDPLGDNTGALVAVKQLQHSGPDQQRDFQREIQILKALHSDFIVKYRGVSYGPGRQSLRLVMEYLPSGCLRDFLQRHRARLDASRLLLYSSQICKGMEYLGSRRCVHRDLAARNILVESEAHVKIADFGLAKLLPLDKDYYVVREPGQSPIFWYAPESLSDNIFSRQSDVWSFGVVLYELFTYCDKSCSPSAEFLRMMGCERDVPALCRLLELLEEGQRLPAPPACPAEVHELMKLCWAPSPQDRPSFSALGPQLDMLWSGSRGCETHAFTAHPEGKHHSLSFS
# Test protocol: Enzyme assay (Assay Example^a 1), JAK3
# Assay type: biochemical
# Test context: ATP 100 μM
Answers are plain numbers, in µM.

Guide cases for IC50, answers given:
Clc1ccc(CN2CCC(c3nnn4cnc5[nH]ccc5c34)CC2)c(Cl)n1 [compound 231]: 0.23
OCCN(Cc1ccccc1)C[C@H]1CC[C@H](c2nnn3cnc4[nH]ccc4c23)CC1 [compound 268]: 0.72
N#CCNC[C@H]1CC[C@H](c2nnn3cnc4[nH]ccc4c23)CC1 [compound 259]: 0.27
FC(F)(F)C1(NC[C@H]2CC[C@H](c3nnn4cnc5[nH]ccc5c34)CC2)CC1 [compound 292]: 0.39
[N-]=[N+]=NC[C@H]1CC[C@H](c2nnn3cnc4[nH]ccc4c23)CC1 [compound 369]: 0.048

Exercise: Given the molecule O=C1OCCC1NC[C@H]1CC[C@H](c2nnn3cnc4[nH]ccc4c23)CC1 (some centres unmarked) [compound 279] , what is its reported IC50?
Key: 0.53
